RUN_CONDITIONS: Ebola virus entry assay, green fluorescence channel
Entries with a potency or affinity are not part of this list.
PARAMETER_MEASURED: efficacy (%)
Give just the numeric value; % need not be written.

In the examples that follow, each entry is paired with its recorded efficacy.
Consider the compound shown here: COc1cc(C(=O)N2CCOCC2)cc(OC)c1OC What is its recorded efficacy?
-19.5

And O=C(CCOCCOCCOCCOCCC(=O)Nc1c(I)cc(I)c(C(=O)O)c1I)Nc1c(I)cc(I)c(C(=O)O)c1I ?
-16.9

And COc1ccc2cccc(CCNC(C)=O)c2c1 ?
-16.7

And CC[N+](CC)(CC)CCOc1cccc(OCC[N+](CC)(CC)CC)c1OCC[N+](CC)(CC)CC ?
15.9

And COc1cc(CCN)cc(OC)c1OC ?
10.5

And CCN1CCC[C@H]1CNC(=O)c1c(OC)ccc(Br)c1OC ?
-13.7

More entries:
Consider the compound shown here: CCn1nc(C(=O)O)c(=O)c2cc3c(cc21)OCO3 What is its recorded efficacy?
37.2

And CCCCCCC(=O)CCCCCC/C=C/C[C@@H](O)[C@H](O)[C@@](N)(CO)C(=O)O ?
-11.6

And CC1CCN(CCCC(=O)c2ccc(F)cc2)CC1 ?
-14.6

And O=C1c2ccccc2C(=O)c2ccccc21 ?
11.2

And CCCc1nn(C)c2c(=O)[nH]c(-c3cc(S(=O)(=O)N4CCN(C)CC4)ccc3OCC)nc12 ?
14.7

And CC1c2ccccc2CN1NC(=O)c1ccc(Cl)c(S(N)(=O)=O)c1 (stereo not given) ?
14.8

And CC1(C)C(C=C(Cl)Cl)C1C(=O)OC(C#N)c1cccc(Oc2ccccc2)c1 (stereo not given) ?
-14.1

And O=c1c(C2CC(c3ccc(-c4ccc(Br)cc4)cc3)Cc3ccccc32)c(O)sc2ccccc12 (stereo not given) ?
37.1

* * *

RUN_CONDITIONS: Ebola virus entry assay, ratio channel readout
Calls of active or inactive are those of the source.
Respond only with the outcome that fits, drawn from 1 (active), -1 (inactive)

GET /call?item= O=C1Nc2ccc(Cl)cc2C(c2ccccc2)=NC1O (centres undefined) returns the recorded outcome of this test.
-1

And COc1cc([C@@H]2c3cc4c(cc3C(O[C@@H]3O[C@@H]5CO[C@@H](C)O[C@H]5[C@H](O)[C@H]3O)C3COC(=O)[C@@H]32)OCO4)cc(OC)c1OP(=O)(O)O (some centres undefined) ?
1

And CN1C(CSCC(F)(F)F)Nc2cc(Cl)c(S(N)(=O)=O)cc2S1(=O)=O (centres undefined) ?
-1

And CC(C)(O/N=C(\C(=O)N[C@@H]1C(=O)N2C(C(=O)[O-])=C(C[n+]3ccccc3)CS[C@H]12)c1csc(N)n1)C(=O)O ?
-1

More entries:
GET /call?item= CC[C@H]1OC(=O)[C@H](C)[C@@H](O[C@H]2C[C@@](C)(OC)[C@@H](O)[C@H](C)O2)[C@H](C)[C@@H](O[C@@H]2O[C@H](C)C[C@H](N(C)C)[C@@H]2O)[C@](C)(O)C[C@@H](C)CN(C)[C@H](C)[C@@H](O)[C@]1(C)O returns the recorded outcome of this test.
1

And O=C(OC1C[C@@H]2CC3C[C@H](C1)N2CC3=O)c1c[nH]c2ccccc12 (some centres undefined) ?
-1

And CO[C@H]1C=CO[C@@]2(C)Oc3c(C)c(O)c4c(O)c(c5c(c4c3C2=O)=NC2(CCN(CC(C)C)CC2)N=5)NC(=O)/C(C)=C\C=C/[C@H](C)[C@H](O)[C@@H](C)[C@@H](O)[C@@H](C)[C@H](OC(C)=O)[C@@H]1C ?
-1

And CC(C)(C)NC(=O)[C@@H]1C[C@@H]2CCCC[C@@H]2CN1C[C@@H](O)[C@H](Cc1ccccc1)NC(=O)[C@H](CC(N)=O)NC(=O)c1ccc2ccccc2n1 ?
-1

And Cc1nnc2n1-c1ccc(Cl)cc1C(c1ccccc1)=NC2 ?
-1

And CC(C)CN(C[C@@H](OP(=O)(O)O)[C@H](Cc1ccccc1)NC(=O)O[C@H]1CCOC1)S(=O)(=O)c1ccc(N)cc1 ?
-1

And CC(C)[C@H]1C(=O)N2CCC[C@H]2[C@]2(O)O[C@](NC(=O)[C@@H]3C[C@@H]4c5cccc6[nH]cc(c56)C[C@H]4N(C)C3)(C(C)C)C(=O)N12 ?
-1

And C[C@H](CS)C(=O)N1CCC[C@H]1C(=O)O ?
-1

And Nc1ccc(S(=O)(=O)c2ccc(N)cc2)cc1 ?
-1

And COc1cc(Br)c(C[N+]2(CCOCCC3CCC4CC3C4(C)C)CCOCC2)cc1OC (centres undefined) ?
-1

And CCC1=C(C)CN(C(=O)NCCc2ccc(S(=O)(=O)NC(=O)NC3CCC(C)CC3)cc2)C1=O (centres undefined) ?
-1

* * *

TEST_TARGET: Nucleoprotein (Lymphocytic choriomeningitis virus (strain Armstrong)) (UniProt P09992)
Sequence (P09992 whole entry, looked up): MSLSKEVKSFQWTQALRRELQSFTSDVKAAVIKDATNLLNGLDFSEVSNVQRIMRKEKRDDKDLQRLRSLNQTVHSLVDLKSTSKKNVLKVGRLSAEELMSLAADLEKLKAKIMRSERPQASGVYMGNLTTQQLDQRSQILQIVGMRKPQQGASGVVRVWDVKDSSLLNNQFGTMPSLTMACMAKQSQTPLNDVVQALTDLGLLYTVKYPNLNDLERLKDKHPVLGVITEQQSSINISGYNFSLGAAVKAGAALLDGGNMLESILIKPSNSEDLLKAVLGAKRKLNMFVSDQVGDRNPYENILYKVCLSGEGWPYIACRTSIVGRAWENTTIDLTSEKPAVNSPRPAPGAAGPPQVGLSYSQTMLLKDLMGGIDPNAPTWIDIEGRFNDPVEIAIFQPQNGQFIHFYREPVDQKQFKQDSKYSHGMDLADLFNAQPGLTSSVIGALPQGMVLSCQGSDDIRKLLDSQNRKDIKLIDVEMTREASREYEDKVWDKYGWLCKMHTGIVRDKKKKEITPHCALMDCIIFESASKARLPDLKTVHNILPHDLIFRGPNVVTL
ASSAY_TEXT: qHTS for Inhibitors of the Functional Ribonucleoprotein Complex (vRNP) of Lymphocytic Choriomeningitis Arenaviruses (LCMV): LCMV Primary Screen - GLuc reporter signal (AID 1347086); further: nearly all actives have a fitted effect of over 70% in size
RUN_CONDITIONS: LCMV minigenome vRNP cell assay, Gaussia luciferase reporter; series mostly up to 57.5 µM
Records with an inconclusive call do not appear. The source made the active and inactive calls. Calls come from the whole dose curve.
Respond only with the outcome that fits, drawn from 1.0 = active, 0.0 = inactive

Solved cases below.
GET /call?item= CN1CC[C@]23c4c5ccc(O)c4O[C@H]2[C@@H](O)C=C[C@H]3[C@H]1C5 returns the recorded outcome of this test.
0.0

And Cc1ccc(S(=O)(=O)NC(=O)NC2CCCCC2)cc1 ?
0.0

And CN1CCN(C(=O)C2CCCCC2)CC1 ?
0.0

And COc1cc(CCN)cc(OC)c1OC ?
0.0

And CN1C(CSCC(F)(F)F)Nc2cc(Cl)c(S(N)(=O)=O)cc2S1(=O)=O (configuration not stated) ?
0.0

And Cc1onc(-c2c(Cl)cccc2Cl)c1C(=O)Cl ?
0.0

And COc1ccc(/C=N/NC(=O)c2ccncc2)cc1OC ?
0.0

And C#CCN[C@@H]1CCc2ccccc21 ?
0.0

More entries:
GET /call?item= Cc1ncsc1CCCl returns the recorded outcome of this test.
0.0

And COC(=O)C1=C(C)NC(C)=C(C(=O)OCCc2ccc(N3CCN(C(c4ccccc4)c4ccccc4)CC3)cc2)C1c1cccc([N+](=O)[O-])c1 (configuration not stated) ?
0.0

And CC(C)=CCC[C@@](C)(O)[C@H]1CC=C(C)CC1 ?
0.0

And O=C1CN=C(c2ccccc2)c2cc([N+](=O)[O-])ccc2N1 ?
0.0

And COc1cc(C=O)ccc1O ?
0.0

And Cc1cccc(C)c1OCC(=O)N[C@@H](Cc1ccccc1)[C@@H](O)C[C@H](Cc1ccccc1)NC(=O)[C@H](C(C)C)N1CCCNC1=O ?
1.0

* * *

ASSAY_TEXT: qHTS of pediatric cancer cell lines to identify multiple opportunities for drug repurposing: Primary screen for MG 63 (6-TG R) cells (AID 1347105); further: nearly all actives have a fitted effect of over 50% in size
RUN_CONDITIONS: MG 63 (6-TG R) viability, CellTiter-Glo, 48 h; series mostly up to 46 µM
Results filed as inconclusive are left out. Active and inactive are the calls of the source. Calls follow the shape of the dose curve; as a rule, active = well fitted cell-killing curve with a large enough effect; inconclusive = small, poorly fitted or top-dose-only effect; inactive = no such curve, though single readings can be large or run the other way.
Respond only with the outcome that fits, drawn from 1 = active, 0 = inactive

GET /call?item= C[C@](O)(CS(=O)(=O)c1ccc(F)cc1)C(=O)Nc1ccc(C#N)c(C(F)(F)F)c1 returns the recorded outcome of this test.
1

And Nc1ccccc1 ?
0

And C[C@H]1[C@@H]2Cc3ccc(O)cc3[C@@]1(C)CCN2C ?
0

And C[C@]12Cc3cn[nH]c3C[C@@H]1CC[C@@H]1[C@@H]2CC[C@@]2(C)[C@H]1CC[C@]2(C)O ?
0

More entries:
GET /call?item= COc1cccc([C@@]2(O)CCCC[C@@H]2CN(C)C)c1 returns the recorded outcome of this test.
0

And CC(C)(N)Cc1ccccc1Cl ?
0

* * *

Test system: Tov-21-G
ASSAY_TEXT: Primary qHTS to identify gynecologic anti-cancer compounds using libraries of approved drugs and bioactive compounds (AID 1345084); further: nearly all actives have a fitted effect of over 55% in size
RUN_CONDITIONS: Gynecologic cancer cell panel viability, ATPlite luminescence, 48 h; series mostly up to 57.5 µM
Results filed as inconclusive are left out. Activity calls are given as the source filed them. Calls follow the shape of the dose curve; as a rule, active = well fitted cell-killing curve with a large enough effect; inconclusive = small, poorly fitted or top-dose-only effect, or effect the other way; inactive = flat fitted curve, though single readings scatter.
Respond only with the outcome that fits, drawn from active, inactive

GET /call?item= CNC(C)(C)Cc1ccccc1 returns the recorded outcome of this test.
inactive

And COC1CC(=C(c2cccs2)c2cccs2)C[N+](C)(C)C1 (stereo not given) ?
inactive

And Clc1ccc(C(c2ccc(Cl)cc2)C(Cl)(Cl)Cl)cc1 ?
inactive

And CCCCC/C=C\C/C=C\C/C=C\C/C=C\CCCC(=O)NCC(=O)O ?
inactive

More entries:
GET /call?item= O=C1OC(c2ccc(O)c(S(=O)(=O)O)c2)(c2ccc(O)c(S(=O)(=O)O)c2)c2c(Br)c(Br)c(Br)c(Br)c21 returns the recorded outcome of this test.
inactive

And C[C@]12CC[C@H]3[C@@H](CCC4=CC(=O)CC[C@@H]43)[C@@H]1CC[C@@H]2OC(=O)CCc1ccco1 ?
inactive

And C[C@]12Cc3cn[nH]c3C[C@@H]1CC[C@@H]1[C@@H]2CC[C@@]2(C)[C@H]1CC[C@]2(C)O ?
inactive

And CCN(CC)CCc1c[nH]c2ccccc12 ?
inactive

And O=[N+]([O-])O[C@H]1CO[C@H]2[C@@H]1OC[C@H]2O[N+](=O)[O-] ?
inactive

And CN1CC[C@]23c4c5ccc(O)c4O[C@H]2[C@@H](O)C=C[C@H]3[C@H]1C5 ?
inactive

And O=C1c2ccccc2C(=O)C1C(=O)C(c1ccccc1)c1ccccc1 ?
inactive

And CCCN(CCC)C(=O)Cc1c(-c2ccc(Cl)cc2)nc2ccc(Cl)cn12 ?
inactive

And CN1C(=O)COc2c(C(=O)NC3CN4CCC3CC4)cc(Cl)cc21 (stereo not given) ?
inactive

And C=C(C)[C@H]1CN[C@H](C(=O)O)[C@H]1CC(=O)O ?
inactive

And CCCCCCCCCC(=O)O[C@H]1CC[C@H]2[C@@H]3CCC4=CC(=O)CC[C@@H]4[C@H]3CC[C@]12C ?
inactive

And COc1ccc2c3c1O[C@H]1[C@H](O)CC[C@H]4[C@@H](C2)N(C)CC[C@@]341 ?
inactive

And C[C@@H]1CC2=CC(=O)CC[C@@H]2[C@H]2CC[C@@]3(C)[C@@H](CC[C@]3(C)O)[C@@H]21 ?
inactive

And COc1cccc2c1C(=O)c1c(O)c3c(c(O)c1C2=O)C[C@@](O)(C(=O)CO)CC3OC1CC(N2CCOC(OC)C2)C(O)C(C)O1 (stereo not given in full) ?
active

And O=C1c2ccccc2C(=O)c2ccccc21 ?
inactive

And CN1C(=O)NC(=O)C(C)(C2=CCCCC2)C1=O (stereo not given) ?
inactive

Origin of values: PubChem BioAssay (NCATS)
